Just for reference, PubChem BioAssay (NCI) is where these values come from.

Measured growth accompanies every entry in the list below.
Tested on: HOP-92 NSCLC
Experiment: NCI-60 one-dose screen, 48 h (100 = growth as untreated, 0 = no growth, -100 = all killed)
Details: 10 µM unless noted
The panel holds about 83,000 compounds, 20% with a hit somewhere; the sample as a whole holds those more often.
Give the quantity in %, number only.

C#Cc1cccc(Nc2ncnc3cc(OCCOC)c(OCCOC)cc23)c1 = 72.8

I am curious: what growth value has been reported for "COc1ccc(Nc2ncccc2NC(=O)c2cn(Cc3cccc(Oc4ccccc4)c3)nn2)cc1" ?
99.6

Entry under review: "COc1cc(N2CCC(N(C)C)CC2)ccc1Nc1ncc(Cl)c(Nc2ccccc2P(C)(C)=O)n1" . Reported growth?
-60.2

Please report the recorded growth for "Nc1nc(Nc2ccccc2)c(C=Nc2ccccc2)c(=O)[nH]1" .
66.8

# query: growth of entry COC(=O)[C@H](Cc1ccccc1)NC(=O)[C@@H](OC)[C@@H]1Cc2cc3cc(OC4CC(OC5CC(O)C(O)C(C)O5)C(O)C(C)O4)c(C)c(O)c3c(O)c2C(=O)[C@H]1OC1CC(OC2CC(OC3CC(C)(O)C(O)C(C)O3)C(O)C(C)O2)C(O)C(C)O1 (some centres undefined)
-17.5

// growth lookup, key: COc1cc(NC2CCC(=O)N2c2ccc(Cl)cc2Cl)cc(OC)c1OC (centres undefined)
83.1

Need growth of "Cc1cc2c(-c3nc4ccccn4c3NC34CC5CC(CC(C5)C3)C4)c(O)c(O)cc2c(O)c1-c1c(C)cc2c(-c3nc4ccccn4c3NC34CC5CC(CC(C5)C3)C4)c(O)c(O)cc2c1O" , thanks.
-9.41

Any idea what its growth is? The compound is "COc1ccc2c(c1)cn1c3ccc(O)cc3nc(N)c21"
17.2

Requested field: growth. Item: "CCc1ccc(C2=C(O)C(=O)C(c3ccc(CC)cc3)=C(O)C2=O)cc1"
-47.9
